// values below are reported Corn plant response rating
# Tested on: corn
# run_description: Test C preemergence
# Format: in vivo, Zea mays
# settings: 500 g ai/ha, preemergence; 0 to 100 scale (0 no effect, 100 complete control)

input: For the molecule CC(C)c1ncn(-c2cc(C(=O)N3C[C@H](C)Oc4c(Cl)cccc43)cnn2)n1 , report Corn plant response rating.
output: 30

input: For the molecule CCc1ncn(-c2cccc(C(=O)N3CC(C(F)(F)F)Oc4c(Cl)cccc43)c2)n1 (stereo not shown) , report Corn plant response rating.
output: 30

input: For the molecule Cc1ccc(-n2cnc(C(C)(C)C#N)n2)cc1C(=O)N1C[C@H](C)Oc2c(Cl)cccc21 , report Corn plant response rating.
output: 20

input: For the molecule Cc1ccc(-n2cnc(C3(C#N)CCC3)n2)cc1C(=O)N1C[C@H](C)Oc2c(Cl)cccc21 , report Corn plant response rating.
output: 20

###

// values below are reported Horseweed plant response rating
# Tested on: horseweed
# run_description: Test A postemergence
# Format: in vivo, Erigeron canadensis
# settings: 125 g ai/ha, postemergence, 10 days; 0 to 100 scale, 0 no effect, 100 complete control
Quick one: just the number, no unit, thanks!

Known Horseweed plant response rating results, listed for orientation:
CC(C)Cc1ncn(-c2cccc(C(=O)N3C[C@H](C)Oc4c(Cl)cccc43)c2)n1 0
C[C@H]1CN(C(=O)c2cccc(-n3cnc(C(C)(C)C)n3)c2)c2cccc(Cl)c2O1 0
C[C@H]1CN(C(=O)c2cc(Br)cc(-n3cncn3)c2)c2cccc(Cl)c2O1 0

input: For the molecule CCc1ccc(-n2cnc(C3CCC3)n2)cc1C(=O)N1C[C@H](C)Oc2c(Cl)cccc21 , report Horseweed plant response rating.
output: 0

input: For the molecule CC(C)c1ncn(-c2ccc(OCC(F)(F)F)c(C(=O)N3C[C@H](C)Oc4c(Cl)cccc43)c2)n1 , report Horseweed plant response rating.
output: 0

input: For the molecule Cc1cccc2c1O[C@@H](C)CN2C(=O)c1cccc(-n2cnc(COC(C)C)n2)c1 , report Horseweed plant response rating.
output: 0

###

# Tested on: ryegrass, Italian
# run_description: Test C postemergence
# Format: in vivo, Lolium multiflorum
# settings: 500 g ai/ha, postemergence, 10 days, 0 to 100 scale (0 no effect, 100 complete control)
// values below are reported Plant response rating, Ryegrass, Italian
Quick one: just the number, no unit, thanks!

Known Plant response rating, Ryegrass, Italian results, listed for orientation:
compound	Plant response rating, Ryegrass, Italian
CC(C)c1ncn(-c2cccc(C(=O)N3CC(C(F)(F)F)Oc4c(Cl)cccc43)c2)n1 (single isomer, unassigned) [Compound 288]	20
Cc1ncn(-c2ccc(C)c(C(=O)N3CC(C(F)(F)F)Oc4c(Cl)cccc43)c2)n1 (stereo not shown) [Compound 349]	80
COC(C)(C)c1ncn(-c2ccc(C)c(C(=O)N3C[C@H](C)Oc4c(Cl)cccc43)c2)n1 [Compound 343]	90

input: Look up and report measured Plant response rating, Ryegrass, Italian (ryegrass, Italian) for the following compound: COC[C@H]1CN(C(=O)c2cc(-n3cnc(C(C)C)n3)ccc2C)c2cccc(Cl)c2O1 [Compound 313]
output: 90

###

// values below are reported Foxtail, Green plant response rating
# System: green foxtail
# run_description: Test C preemergence
# Type: in vivo, Setaria viridis
# settings: Test C, preemergence, 125 g ai/ha; 0 to 100 scale (0 no effect, 100 complete control)
# Source text: […]
Quick one: just the number, no unit, thanks!

compound	property_name	measured_result
COC[C@H]1CN(C(=O)c2cc(-n3cnc(C4CCC4)n3)ccc2OC)c2cccc(Cl)c2O1	Foxtail, Green plant response rating	90
Cc1cccc2c1OC(C(F)(F)F)CN2C(=O)c1cccc(-n2cnc(C(C)C)n2)c1 (single isomer, unassigned) [Compound 303]	Foxtail, Green plant response rating	100
CC(C)c1ncn(-c2cc(C(=O)N3C[C@H](C)Oc4c(Cl)cccc43)cnn2)n1	Foxtail, Green plant response rating	100

input: For the compound COc1cc(C(=O)N2C[C@H](C)Oc3c(Cl)cccc32)cc(-n2cnc(C3CCC3)n2)c1 , report Foxtail, Green plant response rating.
output: 100

input: For the compound CSCc1ncn(-c2ccc(C)c(C(=O)N3C[C@H](C)Oc4c(Cl)cccc43)c2)n1 , report Foxtail, Green plant response rating.
output: 100

input: For the compound COc1ccc(-n2cncn2)cc1C(=O)N1C[C@H](C)Oc2c(F)cccc21 , report Foxtail, Green plant response rating.
output: 100

input: For the compound Cc1ccc(-n2cnc(C(C)C)n2)cc1C(=O)N1CC(C(F)(F)F)Oc2c(Cl)cccc21 (single isomer, unassigned) [Compound 292] , report Foxtail, Green plant response rating.
output: 90

###

# System: oat, wild
# run_description: Test C preemergence
# Format: in vivo, Avena fatua
# settings: Preemergence, 125 g ai/ha; 0 to 100 scale, 0 no effect, 100 complete control
property_name: Plant response rating, Oat, Wild
Quick one: just the number, no unit, thanks!

input: For the compound Cc1ccc(-n2cncn2)cc1C(=O)N1CC(C(F)(F)F)Oc2c(Cl)cccc21 (stereo not drawn) , report Plant response rating, Oat, Wild.
output: 0

input: For the compound Cc1cccc2c1OC(C(F)(F)F)CN2C(=O)c1ccnc(-n2cnc(C(C)C)n2)c1 (stereo not drawn) , report Plant response rating, Oat, Wild.
output: 20

input: For the compound CCOC[C@H]1CN(C(=O)c2cc(-n3cnc(C(C)C)n3)cc3c2OCCO3)c2cccc(Cl)c2O1 , report Plant response rating, Oat, Wild.
output: 30

###

# System: wheat
# run_description: Test A preemergence
# Assay type: in vivo, Triticum aestivum
# settings: 500 g ai/ha, 0 to 100 scale (0 no effect, 100 complete control), 10 days
property_name: Plant response rating, Wheat
Quick one: just the number, no unit, thanks!

Known Plant response rating, Wheat results, listed for orientation:
compound	measured_result
Cc1ccc(-n2cncn2)cc1C(=O)N1C[C@H](C)Oc2c(C)cccc21	80
Cc1ccc(-n2cnc(C3CC3)n2)cc1C(=O)N1C[C@H](C)Oc2c(Cl)cccc21	30
Cc1cc(F)cc2c1OC(C)CN2C(=O)c1cccc(-n2cncn2)c1 (centres unmarked)	40
CCc1cccc2c1OC(C)CN2C(=O)c1cccc(-n2cncn2)c1 (centres unmarked)	10

input: For the compound C[C@H]1CN(C(=O)c2cccc(-n3cncn3)c2)c2cccc(C#N)c2O1 , report Plant response rating, Wheat.
output: 30

input: For the compound Cc1cccc2c1O[C@@H](C)CN2C(=O)c1cc(-n2cncn2)ccc1F , report Plant response rating, Wheat.
output: 50

input: For the compound COc1ccc(-n2cnc(C(C)(C)C)n2)cc1C(=O)N1C[C@H](C)Oc2c(Cl)cccc21 , report Plant response rating, Wheat.
output: 90

input: For the compound COc1ccc(-n2cnc(C)n2)cc1C(=O)N1C[C@H](C)Oc2c(Cl)cccc21 , report Plant response rating, Wheat.
output: 60

###

# Test system: foxtail, giant
# run_description: Test A postemergence
# Type: in vivo, Setaria faberi
# settings: Setaria faberi, post-emergence, 240 h, 125 g ai/ha, postemergence, 10 days, 0 to 100 scale (0 no effect, 100 complete control); read-out: Foxtail, Giant plant response rating
# Text: […]
// values below are reported pest or weed control at 125 g/ha
API: value field is a number in %; no unit string.

compound	measured_result
Cc1ccc(-n2ncnc2C)cc1C(=O)N1C[C@H](C)Oc2c(Cl)cccc21 (single isomer, unassigned)	0
Cc1cccc2c1O[C@@H](C)CN2C(=O)c1cccc(-n2cnc(C3COC3)n2)c1	70
Cc1cccc2c1O[C@@H](C)CN2C(=O)c1cccc(-n2cn[nH]c2=O)c1	20

Let us examine a further case.
input: For the compound COc1ccc(-n2cnc(C(C)C)n2)cc1C(=O)N1C[C@H](C)Oc2c(Cl)cccc21 , report pest or weed control at 125 g/ha.
output: 80

###

# Test system: corn
# run_description: Test C preemergence
# Assay type: in vivo, Zea mays
# settings: Preemergence, 125 g ai/ha; 0 to 100 scale, 0 no effect, 100 complete control
property_name: Plant response rating, Corn
Quick one: just the number, no unit, thanks!

Known Plant response rating, Corn results, listed for orientation:
compound	measured_on	Plant response rating, Corn
CC(C)c1ncn(-c2cc(C(=O)N3CC(C(F)(F)F)Oc4c(Cl)cccc43)ccn2)n1 (racemic) [Compound 329]	corn	20
CCOCC1CN(C(=O)c2cc(-n3cnc(C4CCC4)n3)ccc2OC)c2cccc(Cl)c2O1 (stereo not drawn)	corn	0
CCOC[C@H]1CN(C(=O)c2cc(-n3cnc(C(C)C)n3)cc3c2OCCO3)c2cccc(Cl)c2O1	corn	10
Cc1ccc(-n2cnc(C#N)n2)cc1C(=O)N1C[C@H](C)Oc2c(Cl)cccc21	corn	0
Cc1ccc(-n2cnc(CS(C)(=N)=O)n2)cc1C(=O)N1C[C@H](C)Oc2c(Cl)cccc21 (stereo partly drawn)	corn	10
Cc1ncn(-c2ccc(C)c(C(=O)N3CC(C(F)(F)F)Oc4c(Cl)cccc43)c2)n1 (stereo not drawn)	corn	40
CCc1ncn(-c2cccc(C(=O)N3CC(C(F)(F)F)Oc4c(Cl)cccc43)c2)n1 (stereo not drawn)	corn	10
Cc1cccc2c1OC(C(F)(F)F)CN2C(=O)c1cccc(-n2cnc(C(C)(C)C)n2)c1 (stereo not drawn)	corn	0
Cc1ccc(-n2cnc(C3(C#N)CC3)n2)cc1C(=O)N1C[C@H](C)Oc2c(Cl)cccc21	corn	0
CC(C)c1ncn(-c2cc(C(=O)N3CC(C(F)(F)F)Oc4c(Cl)cccc43)ccn2)n1 (single isomer, unassigned) [Compound 330]	corn	10

Let us examine a further case.
input: For the compound CC(C)c1ncn(-c2cccc(C(=O)N3CC(C(F)(F)F)Oc4c(Cl)cccc43)c2)n1 (stereo not drawn) , report Plant response rating, Corn.
output: 0
